Values from patent US8940909B2

Test system: Citrobacter freundii 181
Test: IO staining of colonies of beta-D-galactosidase positive/negative bacteria (Table IVb)
Assay type: cell-based
Details: Citrobacter freundii strain 181, b-gal +; 24 h on Nutrient Agar, 150 mg/l indicator, 100 mg/l IPTG
Recorded Endpoint: F: Fluorescence of colonies

>>> result("COc1ccc(C(=O)c2ccccc2-n2cc(O[C@@H]3O[C@H](CO)[C@H](O)[C@H](O)[C@H]3O)c3c(Cl)c(Br)ccc32)c(OC)c1 [Indicator I28a]")
"+/−"
>>> result("O=C(c1ccccc1)c1ccccc1-n1cc(O[C@@H]2O[C@H](CO)[C@H](O)[C@H](O)[C@H]2O)c2c(Cl)c(Br)ccc21 [Indicator I22a]")
"+/−"
>>> result("O=C(c1ccccc1)c1ccccc1-n1cc(O[C@@H]2O[C@H](CO)[C@H](O)[C@H](O)[C@H]2O)c2ccc(Cl)cc21 [Indicator I21a]")
"+"
